test system: in vivo angiogenesis, blood vessel count; assay: reduction of blood vessel formation in vivo – HTS, in vivo study (AID 732); conditions: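 tested at 30 µM in the well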;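 note: zebrafish embryos dosed at one day post fertilization; 0% = reference inhibitor and 100% = plate mean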
Calls of active or inactive are those of the source. The rule behind the calls is not given here.
Return exactly one item of active, inactive

Q. Hi, do you know how COc1ccccc1N1CCN(CCN(C(=O)c2ccc(F)cc2)c2ccccn2)CC1 came out in this test?
A. inactive

Q. Request: COc1ccc(-c2ccc(N)[n+](CCCC(=O)O)n2)cc1
A. inactive

Q. Request: C/C=C/CC(C)C(O)C1C(=O)NC(CC)C(=O)N(C)CC(=O)N(C)C(CC(C)C)C(=O)NC(C(C)C)C(=O)N(C)C(CC(C)C)C(=O)NC(C)C(=O)NC(C)C(=O)N(C)C(CC(C)C)C(=O)N(C)C(CC(C)C)C(=O)N(C)C(C(C)C)C(=O)N1C (centres undefined)
A. inactive

Q. Request: C[C@]12C=CC(=O)C=C1CC[C@@H]1C2=CC[C@]2(C)[C@@H](C(=O)CN3CCN(c4cc(N5CCCC5)nc(N5CCCC5)n4)CC3)CC[C@@H]12
A. inactive

Q. Request: C[Se]C[C@H](N)C(=O)O
A. inactive

Q. Request: CN[C@@H]1C[C@@H](c2ccc(Cl)c(Cl)c2)c2ccccc21
A. inactive

Q. Request: Cc1ccc([N+](=O)[O-])cc1S(=O)(=O)N(C)C
A. inactive

Q. Request: CCN(c1nc(N)c(C(=O)N=C(N)N)nc1Cl)C(C)C
A. inactive

Q. Request: CCn1cc(C(=O)O)c(=O)c2cc(F)c(N3CCNC(C)C3)c(F)c21 (centres undefined)
A. inactive

Q. Request: CC(N)(Cc1ccc(O)c(O)c1)C(=O)O (centres undefined)
A. inactive

Q. Request: CN(C)c1ccc(/C=C2\C(=O)Nc3ccccc32)cc1
A. active

Q. Request: CC(C)NNC(=O)c1ccncc1
A. inactive

Q. Request: CN(C)C(=O)/N=N/C(=O)N(C)C
A. inactive

Q. Request: COc1cc([C@@H]2c3cc4c(cc3[C@H](O)C3COC(=O)[C@@H]32)OCO4)cc(OC)c1OC (some centres undefined)
A. inactive

Q. Request: C[C@]12Cc3cn4c(nc3C=C1CCC1C2CC[C@@]2(C)[C@H]1CC[C@@]2(O)C#N)nc1ccccc14 (some centres undefined)
A. inactive

Q. Request: O=S(=O)(c1cccc2c(Cl)cccc12)N1CCCNCC1
A. inactive

Q. Request: CCN(CC)CCNC(=O)c1ccc(N)cc1
A. inactive

Q. Request: COc1ccc2[nH]cc(CCNC(C)=O)c2c1
A. inactive

Q. Request: O=C1Cc2c([nH]c3ccc(Br)cc23)-c2ccccc2N1
A. inactive

====

system: in vivo angiogenesis, blood vessel count; assay: reduction of blood vessel formation in vivo – HTS, in vivo study (AID 732); settings: active compounds read low;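 tested at 30 µM in the well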;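 note: zebrafish embryos dosed at one day post fertilization; 0% = reference inhibitor and 100% = plate mean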
RECORDED_ENDPOINT: vessel count % control (%)
Expressed in %, but write only the number.

Q. Test system in vivo angiogenesis, blood vessel count; read-out vessel count % control; what value for CN(C)C/C=C(/c1ccc(Br)cc1)c1cccnc1 ?
A. 104

Q. Request: Cc1ccc(N(CC2=NCCN2)c2cccc(O)c2)cc1
A. 77.7

Q. Request: CCCCNc1ccc(C(=O)OCCN(C)C)cc1
A. 100

Q. Request: Cc1ccc2[nH]c(O)c(-c3[nH]c4ccc(Br)cc4c3N=O)c2c1
A. 33.9

Q. Request: COC(=O)C1=C(C)NC(C)=C(C(=O)OC)C1c1ccccc1[N+](=O)[O-]
A. 112

Q. Request: c1ccc(-c2ccccn2)nc1
A. 109

====

test system: in vivo angiogenesis, blood vessel count; assay: reduction of blood vessel formation in vivo – HTS, in vivo study (AID 732); details: active compounds read low;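 tested at 30 µM in the well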;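 note: zebrafish embryos dosed at one day post fertilization; 0% = reference inhibitor and 100% = plate mean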
Give vessel count % control for every item shown.
Expressed in %, but write only the number.

Q. Query (compound): CN(C)c1nc(N)c(C(=O)N=C(N)N)nc1Cl ; field requested: vessel count % control
A. 106

Q. Request: CN1CCCC1CCOC(C)(c1ccccc1)c1ccc(Cl)cc1 (stereo unspecified)
A. 67.5

Q. Request: CCCCCCCCCCCCCCCCOCC(COCC(F)(F)F)OP(=O)(O)OCO (stereo unspecified)
A. 109

Q. Request: CC1=C(/C=C/C(C)=C/C=C/C(C)=C\C(=O)O)C(C)(C)CCC1
A. 76.1

Q. Request: NCC(CP(=O)(O)O)c1ccc(Cl)cc1 (stereo unspecified)
A. 116

Q. Request: CC1(C)CCC(NC(=O)[C@@H](N)CCC(=O)O)CC1
A. 122

Q. Request: CC(C)(C)NCC(O)c1cc(O)cc(O)c1 (stereo unspecified)
A. 93.9

Q. Request: CCCN(CCC)C(=O)Cc1c(-c2ccc(Cl)cc2)nc2c(Cl)cc(Cl)cn12
A. 89.9

Q. Request: NNc1nncc2ccccc12
A. 92.2

Q. Request: O=C(/C=C/c1ccc(O)cc1)c1ccc(O)cc1O
A. 98.4

Q. Request: O=C(O)Cc1cnc[nH]1
A. 110

Hello, the source for this data is PubChem BioAssay AID732, in case you need it.
